Target: Rat IKK-2 (Rattus norvegicus)
Experiment: Rat IKK-2 enzyme assay
Format: biochemical
Conditions: read-out: IC50 (μM) rIKK-2
Consider the cut-off 3 µM. If the recorded IC50 is strictly smaller, the label is true; if not, the label is false.

Incoming: For this compound, is IC50 lower than 3 µM? "NC(=O)Nc1cn(-c2cccc(C(F)(F)F)c2)nc1C(N)=O"
Outgoing: true

Incoming: Queued: "NC(=O)Nc1cn(-c2ccc(-c3cccc(O)c3)cc2F)nc1C(N)=O"
Outgoing: true

Incoming: Queued: "CCc1ccccc1-n1cc(NC(N)=O)c(C(N)=O)n1"
Outgoing: false

Incoming: Queued: "NC(=O)Nc1cn(-c2ccc(Br)cc2)nc1C(N)=O"
Outgoing: true

Incoming: Queued: "Cc1cc(O)ccc1-c1ccc(-n2cc(NC(N)=O)c(C(N)=O)n2)cc1C"
Outgoing: true

Incoming: Queued: "Cc1ccccc1-n1cc(NC(N)=O)c(C(N)=O)n1"
Outgoing: false

Incoming: Queued: "CNC(=O)Nc1cn(-c2ccc(Br)cc2)nc1C(N)=O"
Outgoing: true

Incoming: Queued: "CCOc1cc(-n2cc(NC(N)=O)c(C(N)=O)n2)ccc1-c1ccc(OCC(N)=O)cc1"
Outgoing: false

Incoming: Queued: "Cc1cc(-n2cc(NC(N)=O)c(C(N)=O)n2)ccc1-c1ccc(O)cc1"
Outgoing: true

---

Target: human IKK-2 (rhIKK-2 homodimer) (Homo sapiens, UniProt O14920)
Construct: FLAG (DYKDDDDKD) (C); made in house; host or cells: insect cells (baculovirus, pFastBac)
Sequence (O14920 1-756): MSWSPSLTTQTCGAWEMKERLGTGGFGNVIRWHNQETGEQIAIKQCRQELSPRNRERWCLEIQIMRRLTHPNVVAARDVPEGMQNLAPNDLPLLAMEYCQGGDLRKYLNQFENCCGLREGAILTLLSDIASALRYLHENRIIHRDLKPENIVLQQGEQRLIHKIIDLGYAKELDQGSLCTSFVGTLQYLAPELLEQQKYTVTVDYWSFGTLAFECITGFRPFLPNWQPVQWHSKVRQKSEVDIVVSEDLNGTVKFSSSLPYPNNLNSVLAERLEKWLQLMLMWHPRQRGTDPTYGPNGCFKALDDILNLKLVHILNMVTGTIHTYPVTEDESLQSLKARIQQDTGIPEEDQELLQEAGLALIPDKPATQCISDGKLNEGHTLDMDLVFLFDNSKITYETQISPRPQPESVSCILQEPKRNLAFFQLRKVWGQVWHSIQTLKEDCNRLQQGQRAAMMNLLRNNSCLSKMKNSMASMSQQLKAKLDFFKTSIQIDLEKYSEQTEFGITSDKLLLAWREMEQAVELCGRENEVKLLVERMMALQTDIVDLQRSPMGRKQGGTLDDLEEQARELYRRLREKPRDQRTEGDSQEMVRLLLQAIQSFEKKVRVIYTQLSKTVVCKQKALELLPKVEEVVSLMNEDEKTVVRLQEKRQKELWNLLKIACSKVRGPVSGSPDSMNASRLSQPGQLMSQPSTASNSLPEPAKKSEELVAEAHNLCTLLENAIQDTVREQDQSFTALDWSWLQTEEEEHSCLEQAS
Assay: IKK-2 Resin Enzyme Assay (Human IKK-2 Enzyme Assay)
Format: biochemical
Conditions: human IKK-2, resin enzyme assay; read-out: IC50 (μM) hIKK-2
Provide the recorded IC50 for the entries that follow.
Please state the figure in µM; there is no need to write the unit.

Incoming: Could you share which IC50 value was measured for "NC(=O)Nc1cn(-c2cccc(-c3cccc(O)c3)c2)nc1C(N)=O" ?
Outgoing: 0.44

Incoming: Queued: "NC(=O)Nc1cn(-c2ccc(-c3ccc(F)cc3)cc2)nc1C(N)=O"
Outgoing: 1.55

Incoming: Queued: "NC(=O)Nc1cn(-c2ccc(-c3cccc(O)c3)c(Cl)c2)nc1C(N)=O"
Outgoing: 0.355

Incoming: Queued: "CSc1ccc(-c2cccc(-n3cc(NC(N)=O)c(C(N)=O)n3)c2)cc1"
Outgoing: 8.57

---

Provide the recorded IC50 for the entries that follow.
Target: Rat IKK-2 (Rattus norvegicus, UniProt Q9QY78)
Sequence (Q9QY78 whole entry): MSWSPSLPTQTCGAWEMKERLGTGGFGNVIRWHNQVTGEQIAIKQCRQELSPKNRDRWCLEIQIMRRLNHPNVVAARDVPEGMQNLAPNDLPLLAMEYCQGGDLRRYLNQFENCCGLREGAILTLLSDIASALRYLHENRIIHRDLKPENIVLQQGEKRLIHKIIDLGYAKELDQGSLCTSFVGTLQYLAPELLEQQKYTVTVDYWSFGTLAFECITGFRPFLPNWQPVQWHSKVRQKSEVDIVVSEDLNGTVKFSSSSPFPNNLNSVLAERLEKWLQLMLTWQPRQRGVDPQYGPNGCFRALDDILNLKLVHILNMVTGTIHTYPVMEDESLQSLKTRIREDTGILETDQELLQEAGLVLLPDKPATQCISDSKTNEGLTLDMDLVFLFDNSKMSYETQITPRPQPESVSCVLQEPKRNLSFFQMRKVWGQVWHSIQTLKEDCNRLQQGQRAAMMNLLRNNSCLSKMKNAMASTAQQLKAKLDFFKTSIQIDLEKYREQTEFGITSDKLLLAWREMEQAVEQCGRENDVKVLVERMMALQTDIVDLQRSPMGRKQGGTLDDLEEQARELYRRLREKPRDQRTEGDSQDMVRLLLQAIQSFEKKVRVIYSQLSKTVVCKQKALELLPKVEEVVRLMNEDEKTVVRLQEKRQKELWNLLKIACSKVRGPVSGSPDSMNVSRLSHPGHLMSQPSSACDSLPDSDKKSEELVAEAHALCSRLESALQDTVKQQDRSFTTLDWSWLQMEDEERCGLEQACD
Test: Rat IKK-2 enzyme assay
Type: biochemical
Settings: read-out: IC50 (μM) rIKK-2
Please state the figure in µM; there is no need to write the unit.

Incoming: GET /values?readout=IC50&system=Rat IKK-2 (Rattus norvegicus, UniProt Q9QY78)&item= "NC(=O)Nc1cn(-c2cccc(F)c2)nc1C(N)=O"
Outgoing: 0.533

Incoming: Queued: "NC(=O)Nc1cn(-c2ccc(S(=O)(=O)c3ccncc3)cc2)nc1C(N)=O"
Outgoing: 0.0369

Incoming: Queued: "CCCOc1ccc(-n2cc(NC(N)=O)c(C(N)=O)n2)cc1Cl"
Outgoing: 2.42

Incoming: Queued: "COc1ccc(F)cc1-c1ccc(-n2cc(NC(N)=O)c(C(N)=O)n2)cc1F"
Outgoing: 0.781

Incoming: Queued: "NC(=O)Nc1cn(-c2cccc(-c3cc(F)ccc3O)c2)nc1C(N)=O"
Outgoing: 1.82

Incoming: Queued: "NC(=O)Nc1cn(-c2ccc(Br)c(F)c2)nc1C(N)=O"
Outgoing: 0.292

Incoming: Queued: "CCCc1ccc(-n2cc(NC(N)=O)c(C(N)=O)n2)cc1"
Outgoing: 0.098

Incoming: Queued: "CCCOc1ccc(-n2cc(NC(N)=O)c(C(N)=O)n2)cc1"
Outgoing: 1.08

Incoming: Queued: "NC(=O)Nc1cn(-c2ccc(Br)c(O)c2)nc1C(N)=O"
Outgoing: 0.194

---

Biological target: human IKK-2 (rhIKK-2 homodimer) (Homo sapiens, UniProt O14920)
Construct: FLAG (DYKDDDDKD) (C); made in house; host or cells: insect cells (baculovirus, pFastBac)
Experiment: IKK-2 Resin Enzyme Assay (Human IKK-2 Enzyme Assay)
Format: biochemical
Conditions: human IKK-2, resin enzyme assay; read-out: IC50 (μM) hIKK-2
outcome_measure: IC50

Incoming: Could you share which IC50 value was measured for CC(C#N)Oc1cccc(-c2ccc(-n3cc(NC(N)=O)c(C(N)=O)n3)cc2)c1 (stereo not shown) ?
Outgoing: 1.83 µM

Incoming: Queued: "CCCCc1ccc(-c2cccc(-n3cc(NC(N)=O)c(C(N)=O)n3)c2)cc1"
Outgoing: 16.2 µM

Incoming: Queued: "NC(=O)Nc1cn(-c2ccc(SC3CCCCC3)cc2)nc1C(N)=O"
Outgoing: 1.04 µM

Incoming: Queued: "NC(=O)Nc1cn(-c2ccc(-c3ccccc3)cc2)nc1C(N)=O"
Outgoing: 8.07 µM

Incoming: Queued: "NC(=O)Nc1cn(-c2cccc(-c3ccccc3O)c2)nc1C(N)=O"
Outgoing: 2.25 µM

Incoming: Queued: "CC(=O)OCc1cccc(-c2ccc(-n3cc(NC(N)=O)c(C(N)=O)n3)cc2)c1"
Outgoing: 5.99 µM

Incoming: Queued: NC(=O)Nc1cn(-c2ccc(-c3ccc(C(=O)NC4CCCc5ccccc54)c(F)c3)cc2)nc1C(N)=O (stereo not shown)
Outgoing: 5.97 µM

Incoming: Queued: "NC(=O)Nc1cn(-c2cccc(-c3ccc(C(=O)NC4CC4)cc3)c2)nc1C(N)=O"
Outgoing: 0.6 µM

Incoming: Queued: "Cc1cc(-n2cc(NC(N)=O)c(C(N)=O)n2)ccc1-c1ccc(F)cc1OCC(N)=O"
Outgoing: 0.656 µM

Incoming: Queued: "CN1CCOc2cc(-c3cccc(-n4cc(NC(N)=O)c(C(N)=O)n4)c3)ccc21"
Outgoing: 6.08 µM

Incoming: Queued: "COc1ccccc1CNC(=O)c1ccc(-c2ccc(-n3cc(NC(N)=O)c(C(N)=O)n3)cc2)cc1F"
Outgoing: 0.26 µM

Incoming: Queued: "NC(=O)Nc1cn(-c2ccc(-c3cccc(CO)c3)cc2)nc1C(N)=O"
Outgoing: 1.34 µM

Incoming: Queued: "NC(=O)Nc1cn(-c2ccc(-c3ccncc3)cc2)nc1C(N)=O"
Outgoing: 0.351 µM

Incoming: Queued: "Cc1cc(Sc2ccc(F)cc2)ccc1-n1cc(NC(N)=O)c(C(N)=O)n1"
Outgoing: > 20 µM

Incoming: Queued: "NC(=O)Nc1cn(-c2ccc(Br)c(F)c2)nc1C(N)=O"
Outgoing: 0.378 µM

Incoming: Queued: "COc1ccc(-c2cccc(-n3cc(NC(N)=O)c(C(N)=O)n3)c2)cc1F"
Outgoing: 1.18 µM

Incoming: Queued: "NC(=O)Nc1cn(-c2cccc(-c3cccc(C(=O)NC4CC4)c3)c2)nc1C(N)=O"
Outgoing: 1.65 µM

Incoming: Queued: "CCOC(=O)c1cccc(-c2ccc(-n3cc(NC(N)=O)c(C(N)=O)n3)cc2)c1"
Outgoing: 5.05 µM

Incoming: Queued: "NC(=O)Nc1cn(-c2ccc(F)c(F)c2)nc1C(N)=O"
Outgoing: 1.31 µM

Incoming: Queued: "NC(=O)Nc1cn(-c2ccc(Sc3cccc(Cl)c3)cc2)nc1C(N)=O"
Outgoing: 10.6 µM

Incoming: Queued: "NC(=O)Nc1cn(-c2ccc(-c3ccccc3CCC(=O)O)cc2)nc1C(N)=O"
Outgoing: 1.95 µM

Incoming: Queued: "Cc1ccc(-c2ccc(-n3cc(NC(N)=O)c(C(N)=O)n3)cc2)cc1"
Outgoing: > 20 µM

Incoming: Queued: "N#CCOc1ccccc1-c1cccc(-n2cc(NC(N)=O)c(C(N)=O)n2)c1"
Outgoing: 0.18 µM

Incoming: Queued: "CCc1cc(Br)ccc1-n1cc(NC(N)=O)c(C(N)=O)n1"
Outgoing: 10.6 µM

Incoming: Queued: "N#CCc1ccc(-c2ccc(-n3cc(NC(N)=O)c(C(N)=O)n3)cc2)cc1"
Outgoing: 0.79 µM

Incoming: Queued: "Cc1cc(-n2cc(NC(N)=O)c(C(N)=O)n2)ccc1-c1ccc(F)cc1OCC#N"
Outgoing: 0.866 µM

Incoming: Queued: "N#CCOc1ccccc1-c1ccc(-n2cc(NC(N)=O)c(C(N)=O)n2)c(F)c1"
Outgoing: 0.279 µM

Incoming: Queued: "NC(=O)Nc1cn(-c2cccc(-c3cccc(C(F)(F)F)c3)c2)nc1C(N)=O"
Outgoing: > 20 µM

Incoming: Queued: "N#C/C=C/c1cccc(-c2ccc(-n3cc(NC(N)=O)c(C(N)=O)n3)cc2)c1"
Outgoing: 1.16 µM

Incoming: Queued: "NC(=O)Nc1cn(-c2ccc(-c3cccc(OCc4ncco4)c3)cc2)nc1C(N)=O"
Outgoing: 0.352 µM

Incoming: Queued: "CC(C)(C)c1ccc(-c2ccc(-n3cc(C(N)=O)c(NC(N)=O)n3)cc2)cc1"
Outgoing: > 20 µM

Incoming: Queued: "N#Cc1ccc(-c2ccc(-n3cc(NC(N)=O)c(C(N)=O)n3)cc2)cc1"
Outgoing: 1.15 µM

Incoming: Queued: "CCOc1cccc(-c2cccc(-n3cc(NC(N)=O)c(C(N)=O)n3)c2)c1"
Outgoing: > 20 µM

Incoming: Queued: "CCN(CC)C(=O)COc1cccc(-c2ccc(-n3cc(NC(N)=O)c(C(N)=O)n3)cc2)c1"
Outgoing: 0.42 µM
